Data origin, for the record: the RNAGym collection of RNA variant scans (doi:10.7554/elife.90254)

B1: LINE1-full (parent)
chain: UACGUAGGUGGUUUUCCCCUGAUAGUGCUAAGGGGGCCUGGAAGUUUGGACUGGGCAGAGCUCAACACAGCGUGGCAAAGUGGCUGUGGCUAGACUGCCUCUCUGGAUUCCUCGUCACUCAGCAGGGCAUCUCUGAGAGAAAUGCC

- Variants of: B1
- ASSAY_INFO: self-cleavage, relative activity (ratio to wild type); higher = more cleavage; in vitro, sequencing; the parent is a self-cleaving ribozyme
Listing: self-cleavage of selected variants
The reply should be a number, written without any unit.

# example entries with known answers
* U47C A136C | 1.09
* U52C A69U | 0.1
* U1A U112A | 1.2

Prompt: Endpoint output: self-cleavage of U46C G55A . Value?
Response: 0.59

Prompt: What do you have for U12G U13C ?
Response: 0.95

Prompt: What do you have for A65G C84G ?
Response: 0.17

Prompt: What do you have for U45A U47A ?
Response: 1.17

Prompt: What do you have for U62A U119C ?
Response: 0.03

Prompt: What do you have for U39A U47C ?
Response: 1.55

Prompt: What do you have for U9C C113G ?
Response: 1.75

Prompt: What do you have for G53U G60U ?
Response: 0.03
